Entries annotated with measured cytotoxicity at 70.5 h
assay info: Human HepG2 cell viability assay in 384 well format
Format: toxicity, cell-based
Design: dose 125 nL, time 70.5 hour; concentration not given beside the values
settings: HepG2 cells, read-out: Inhibition
Answer in %, number only, no unit symbol.

query: State the recorded cytotoxicity at 70.5 h for this entry: CCC1CN(C(=O)c2ccc(O)cn2)CCC(=O)N1Cc1ccccc1 (stereo not drawn)
result: -3.56

query: State the recorded cytotoxicity at 70.5 h for this entry: CN(C)C(=O)C1OC2(CCN(C(=O)c3ccoc3)CC2)c2ccccc21 (stereo not drawn)
result: -14.7

New cases:
query: State the recorded cytotoxicity at 70.5 h for this entry: Cc1ncc(-c2nc3cc(S(=O)(=O)N4CCCC4)ccc3n2C)cn1
result: -0.434

query: State the recorded cytotoxicity at 70.5 h for this entry: COc1cc2c(cc1OC)CCN(C(=O)Cn1nc(C)cc1C)CC2
result: 2.01

query: State the recorded cytotoxicity at 70.5 h for this entry: CC(Cn1ccnc1)NC(=O)N1CCN(Cc2ccsc2)CC1 (stereo not drawn)
result: -2.59

query: State the recorded cytotoxicity at 70.5 h for this entry: Cc1cc(C)c2nc(C)cc(C(=O)NC(C)c3nnn[nH]3)c2c1 (stereo not drawn)
result: 6.58

* * *

assay info: Human HepG2 cell viability assay in 384 well format
Format: toxicity, cell-based
Set-up: dose 125 nL, time 70.5 hour; concentration not given beside the values
settings: HepG2 cells, read-out: Inhibition
property measured: cytotoxicity at 70.5 h
Write the numeric value and follow it with the unit.

// below: answered molecules
query: State the recorded cytotoxicity at 70.5 h for this entry: CC(=O)N1CCC(Cc2cnc(-c3c(C)n[nH]c3C)cn2)C1 (stereo unspecified)
result: -13.1%

query: State the recorded cytotoxicity at 70.5 h for this entry: CS(=O)(=O)NCC1CCCN(C(=O)Nc2ccccc2Cl)C1 (stereo unspecified)
result: 1.65%

query: State the recorded cytotoxicity at 70.5 h for this entry: O=C(c1ccncc1)N1CCOC2(COCCN(c3cncnc3)C2)C1 (stereo unspecified)
result: -11.1%

query: State the recorded cytotoxicity at 70.5 h for this entry: CN1CCN(S(=O)(=O)C2CC2)Cc2cccnc21
result: -0.334%

query: State the recorded cytotoxicity at 70.5 h for this entry: COCCCC1CCN([C@@H]2c3ccccc3C3(CCNCC3)[C@H]2O)CC1
result: -1.24%

Let us move to another entry and its cytotoxicity at 70.5 h.
query: State the recorded cytotoxicity at 70.5 h for this entry: CSCc1ccc(N(C)CC2CCCN(C(C)C)C2)nc1 (stereo unspecified)
result: -2.8%

* * *

Entries annotated with measured cytotoxicity at 70.5 h
assay info: Human HepG2 cell viability assay in 384 well format
Format: toxicity, cell-based
Parameters: dose 125 nL, time 70.5 hour; concentration not given beside the values
settings: HepG2 cells, read-out: Inhibition
Write the numeric value and follow it with the unit.

query: State the recorded cytotoxicity at 70.5 h for this entry: CC(O)CN1CCC(CN(C)Cc2cc(F)cc3cccnc23)CC1 (centres undefined)
result: -2.25%

query: State the recorded cytotoxicity at 70.5 h for this entry: CC(C)NC(=O)N1CCC2(CC(=O)N(c3cccc(F)c3)C2)C1 (centres undefined)
result: -12.8%

query: State the recorded cytotoxicity at 70.5 h for this entry: COC(=O)[C@H]1CN(C(=O)c2cscn2)C[C@@H]1c1ccc(F)cc1
result: 0.296%

New cases:
query: State the recorded cytotoxicity at 70.5 h for this entry: O=S(=O)(c1ccccc1)N1C[C@@H]2COC[C@]2(CN2CCOCC2)C1
result: 13.1%

query: State the recorded cytotoxicity at 70.5 h for this entry: COc1c(C2CCCN2Cc2nc(C)c(C)o2)c(C)nn1C (centres undefined)
result: -7.8%

* * *

Entries annotated with measured cytotoxicity at 70.5 h
assay info: Human HepG2 cell viability assay in 384 well format
Assay type: toxicity, cell-based
Parameters: dose 125 nL, time 70.5 hour; concentration not given beside the values
settings: HepG2 cells, read-out: Inhibition
Answer in %, number only, no unit symbol.

// below: answered compounds
query: State the recorded cytotoxicity at 70.5 h for this entry: CNC(=O)C1CCCCN1C(=O)c1n[nH]c(=O)c2ccccc12 (stereo not drawn)
result: -6.33

query: State the recorded cytotoxicity at 70.5 h for this entry: c1cc(CN2C[C@@H]3OCCN(CC4CCCO4)[C@@H]3C2)cs1 (stereo partly drawn)
result: -7.25

query: State the recorded cytotoxicity at 70.5 h for this entry: CCc1nccn1C1CCCN(C(=O)c2ccn(C)c(=O)c2)C1 (stereo not drawn)
result: -0.0555

query: State the recorded cytotoxicity at 70.5 h for this entry: COc1ccc(CN2C[C@@H](F)[C@@H](OCc3nc4ccccc4[nH]3)C2)cn1
result: -2.98

New cases:
query: State the recorded cytotoxicity at 70.5 h for this entry: CCOCc1cnc2n1CCN(C(=O)c1cccc3c1OCCO3)C2C (stereo not drawn)
result: -5.93

query: State the recorded cytotoxicity at 70.5 h for this entry: CCN(Cc1ccc2c(c1)OCCO2)C(=O)NCc1nncn1CC
result: -13.5

query: State the recorded cytotoxicity at 70.5 h for this entry: CN1CCN(CCCNC(=O)c2nc3ccccc3c(=O)[nH]2)CC1
result: -19.4

query: State the recorded cytotoxicity at 70.5 h for this entry: CC1(C)O[C@@](C)([C@H]2CC3(CCN(c4cnccn4)CC3)CO2)CC[C@@H]1O
result: 1.78

query: State the recorded cytotoxicity at 70.5 h for this entry: CN(C)C(CNc1c(NCc2ccco2)c(=O)c1=O)c1ccccc1 (stereo not drawn)
result: -8.7

query: State the recorded cytotoxicity at 70.5 h for this entry: CSC(CNS(=O)(=O)c1cnn(C)c1)c1cccc(Cl)c1 (stereo not drawn)
result: -6.72

query: State the recorded cytotoxicity at 70.5 h for this entry: CSCCc1nc(C(C)C)nn1-c1ccncc1C
result: -12.8

query: State the recorded cytotoxicity at 70.5 h for this entry: CC(c1ccon1)N(C)Cc1cc(O)c2cc(F)ccc2n1 (stereo not drawn)
result: -10.6

query: State the recorded cytotoxicity at 70.5 h for this entry: CCc1noc(C)c1C(=O)N1CCCC1c1c(C)nn(C)c1C (stereo not drawn)
result: -1.9

query: State the recorded cytotoxicity at 70.5 h for this entry: COc1ccc2c(c1)CN(C)C(=O)CCN2CC(O)C(C)(C)C (stereo not drawn)
result: -6.98

* * *

assay info: Human HepG2 cell viability assay in 384 well format
Format: toxicity, cell-based
Parameters: dose 125 nL, time 70.5 hour; concentration not given beside the values
settings: HepG2 cells, read-out: Inhibition
property measured: cytotoxicity at 70.5 h (%)
Answer in %, number only, no unit symbol.

// below: answered molecules
query: State the recorded cytotoxicity at 70.5 h for this entry: Cc1cnn(CCNCc2ccccc2Oc2cccnc2)c1
result: 28.3

query: State the recorded cytotoxicity at 70.5 h for this entry: CCOc1ccc(Cl)c(C(=O)N2CCN(c3ccncc3)CC2)n1
result: -13.6

query: State the recorded cytotoxicity at 70.5 h for this entry: COc1c(C)cnc(CSc2nnc(C)s2)c1C
result: -5.43

query: State the recorded cytotoxicity at 70.5 h for this entry: CC(=O)N(C)c1nc(CN2CCOC(Cn3cccn3)C2)cs1 (configuration not stated)
result: -11.7

query: State the recorded cytotoxicity at 70.5 h for this entry: CC1CN(C)CCN1C(=O)Nc1nc(-c2ccc[nH]2)cs1 (configuration not stated)
result: -14.7

New cases:
query: State the recorded cytotoxicity at 70.5 h for this entry: Cc1cccc(CN2CCC(c3nnsc3S(C)(=O)=O)CC2)n1
result: -4.43

query: State the recorded cytotoxicity at 70.5 h for this entry: O=C(NCC1CCN(CCc2ccccc2)C1)c1c(F)cccc1F (configuration not stated)
result: 14.6

query: State the recorded cytotoxicity at 70.5 h for this entry: CC1c2ncc(COc3cccnc3)n2CCN1C(=O)C1=CCCC1 (configuration not stated)
result: -9.18

query: State the recorded cytotoxicity at 70.5 h for this entry: CC(C)(C)c1nc(CN2CCC(c3ccnn3CCO)CC2)no1
result: -0.084

query: State the recorded cytotoxicity at 70.5 h for this entry: CC(NC(=O)NCCCN(C)C)c1ccc2c(c1)CCC(=O)N2 (configuration not stated)
result: -10.2

query: State the recorded cytotoxicity at 70.5 h for this entry: CN1C[C@H]2CNC[C@@]2(C(=O)NC2CCN(c3ncccc3C#N)CC2)C1
result: 1.46

* * *

assay info: Human HepG2 cell viability assay in 384 well format
Assay type: toxicity, cell-based
Design: dose 125 nL, time 70.5 hour; concentration not given beside the values
settings: HepG2 cells, read-out: Inhibition
property measured: cytotoxicity at 70.5 h (%)
Answer in %, number only, no unit symbol.

// below: answered compounds
query: State the recorded cytotoxicity at 70.5 h for this entry: COc1ccccc1-n1nc(CC(C)C)nc1Cc1nnc(N)s1
result: 5.97

query: State the recorded cytotoxicity at 70.5 h for this entry: CCc1ncncc1C(=O)NCCNS(=O)(=O)c1ccc(C)cc1
result: -1.77

query: State the recorded cytotoxicity at 70.5 h for this entry: O=C(c1ccc[nH]1)N1CCO[C@]2(CCC[C@@H]2COc2cccnc2)C1
result: -2.32

New cases:
query: State the recorded cytotoxicity at 70.5 h for this entry: O=C(NS(=O)(=O)c1cccc(F)c1)c1ccccc1F
result: 13.1

query: State the recorded cytotoxicity at 70.5 h for this entry: CC(=O)N(Cc1noc(C)n1)C1CCN(Cc2ccncc2Cl)C1 (configuration not stated)
result: -4.45

query: State the recorded cytotoxicity at 70.5 h for this entry: N[C@H]1CN(S(=O)(=O)c2ccccc2)C[C@@H]1C1CC1
result: 17.3

query: State the recorded cytotoxicity at 70.5 h for this entry: CC(C)CN(Cc1cnn(C)c1)C(=O)C1COc2ccccc2C1 (configuration not stated)
result: 1.15

query: State the recorded cytotoxicity at 70.5 h for this entry: CCN(CC1CCCO1)C(=O)Nc1cc(C)ccc1S(C)(=O)=O (configuration not stated)
result: -1.66

query: State the recorded cytotoxicity at 70.5 h for this entry: Cc1cc(C)n(CC(C)NCc2nncn2C2CCCCC2)n1 (configuration not stated)
result: -7.66

query: State the recorded cytotoxicity at 70.5 h for this entry: CCOCCN1CCN(Cc2nc(C3CC3)no2)CC1CC (configuration not stated)
result: 18.8

query: State the recorded cytotoxicity at 70.5 h for this entry: CC(C)NC(=O)N1CCN(c2ccc(Cl)nn2)C(=O)C1
result: -4.88

query: State the recorded cytotoxicity at 70.5 h for this entry: CN(CCc1ccccn1)C(=O)C1Cc2ccccc2CN1C (configuration not stated)
result: -10.6
